B1: glmS ribozyme (parent)
chain: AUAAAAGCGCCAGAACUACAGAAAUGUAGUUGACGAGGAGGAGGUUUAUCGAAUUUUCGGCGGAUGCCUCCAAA

Variants of: B1
Assay: self-cleavage kobs at 10000 uM GlcN6P; higher = faster cleavage; RNA array
Conditions: with glucosamine-6-phosphate
Fewer inactive variants are shown than the library holds.
Would you please tag the item Met when its self-cleavage kobs at 10000 uM GlcN6P is 0.0003 s⁻¹ or above, and Not met when it is below?

Data request: Can A15U A36C U46G be said to have self-cleavage kobs at 10000 uM GlcN6P at or above 0.0003 s⁻¹?
Data returned: Not met

Data request: Can A14G C34G G44U A52C C58A G59A G63U C71G be said to have self-cleavage kobs at 10000 uM GlcN6P at or above 0.0003 s⁻¹?
Data returned: Not met

Data request: Say whether U57A C71U shows self-cleavage kobs at 10000 uM GlcN6P of 0.0003 s⁻¹ or more.
Data returned: Met

Data request: # check: self-cleavage kobs at 10000 uM GlcN6P of U31C A53G is greater than or equal to 0.0003 s⁻¹
Data returned: Met

Data request: Is the recorded value of self-cleavage kobs at 10000 uM GlcN6P equal to or greater than 0.0003 s⁻¹ for this variant? G7U A36U G40C
Data returned: Not met

Data request: In plain terms: is recorded self-cleavage kobs at 10000 uM GlcN6P at least 0.0003 s⁻¹ for A42G C58A ?
Data returned: Met

Data request: Check if self-cleavage kobs at 10000 uM GlcN6P >= 0.0003 s⁻¹ (inclusive). Item: G13C C16U
Data returned: Not met

Data request: Given the entry U54C U56A , answer whether its self-cleavage kobs at 10000 uM GlcN6P meets or surpasses 0.0003 s⁻¹.
Data returned: Met

Data request: Test whether the variant A36C U54A G59A records self-cleavage kobs at 10000 uM GlcN6P of 0.0003 s⁻¹ or higher.
Data returned: Not met

Data request: Given G38U A39C G44A , state whether its self-cleavage kobs at 10000 uM GlcN6P is at least 0.0003 s⁻¹.
Data returned: Not met

Data request: Reported self-cleavage kobs at 10000 uM GlcN6P reaches at least 0.0003 s⁻¹ for U49G G66U ?
Data returned: Not met

Data request: Threshold query (self-cleavage kobs at 10000 uM GlcN6P >= 0.0003 s⁻¹) on A64U C70A
Data returned: Not met

Data request: Check the entry G35C U65C : does self-cleavage kobs at 10000 uM GlcN6P equal or exceed 0.0003 s⁻¹?
Data returned: Not met

Data request: Form field: self-cleavage kobs at 10000 uM GlcN6P at least 0.0003 s⁻¹? Entry: U47G U54G G62U
Data returned: Not met

Data request: Record A6G G38A G40A G60C ; criterion: self-cleavage kobs at 10000 uM GlcN6P no lower than 0.0003 s⁻¹. Met?
Data returned: Not met

Data request: Hi team, for U30A U54A G59U G62U C67U C70U , is the recorded self-cleavage kobs at 10000 uM GlcN6P at or above 0.0003 s⁻¹?
Data returned: Not met

Data request: Hi team, for U56A C70U C71U , is the recorded self-cleavage kobs at 10000 uM GlcN6P at or above 0.0003 s⁻¹?
Data returned: Not met

Data request: Evaluate A12G U65A : self-cleavage kobs at 10000 uM GlcN6P at minimum 0.0003 s⁻¹?
Data returned: Not met

Data request: State whether the measured self-cleavage kobs at 10000 uM GlcN6P reaches 0.0003 s⁻¹, counting equality as reaching it, for C16U G63U G66A
Data returned: Not met

Data request: Does the variant A15U U46C C70G have recorded self-cleavage kobs at 10000 uM GlcN6P that is 0.0003 s⁻¹ or more?
Data returned: Not met

Data request: Decide: self-cleavage kobs at 10000 uM GlcN6P of C16U U55G U69G >= 0.0003 s⁻¹?
Data returned: Not met
